Molecular target: T1, human MSLN protein endogenously expressed on OVCAR3 tumor cells (human, UniProt Q13421 296-598)
T1 construct: whole, on cells; endogenous expression on a tumor cell line; also called human mesothelin
T1 sequence (Q13421 other isoform, or with tags, fused parts or gaps): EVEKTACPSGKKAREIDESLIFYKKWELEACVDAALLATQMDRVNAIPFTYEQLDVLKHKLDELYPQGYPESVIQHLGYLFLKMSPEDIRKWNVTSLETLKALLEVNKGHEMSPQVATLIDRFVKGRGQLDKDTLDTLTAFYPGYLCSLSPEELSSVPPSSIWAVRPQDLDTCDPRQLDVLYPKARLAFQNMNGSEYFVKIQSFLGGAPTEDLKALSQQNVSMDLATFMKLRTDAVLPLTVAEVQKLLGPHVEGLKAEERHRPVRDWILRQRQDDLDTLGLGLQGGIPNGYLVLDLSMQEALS
Assay: FACS on OVCAR3 cells;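 note: flow cytometry of chimeric antibody binding to OVCAR3 cells, 2 h on ice, read as cellular mean fluorescence intensity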
Maximum mean fluorescence intensity values for the binders below.

BINDER | TEST VALUE
S009-F8-32.3 (antibody, human IgG1, kappa, V domains shown, human-murine chimeric antibody, human IgG1/kappa constant regions) VH: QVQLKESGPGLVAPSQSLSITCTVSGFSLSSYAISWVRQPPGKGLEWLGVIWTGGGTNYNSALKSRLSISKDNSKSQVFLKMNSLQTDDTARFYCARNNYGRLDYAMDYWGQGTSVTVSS VL: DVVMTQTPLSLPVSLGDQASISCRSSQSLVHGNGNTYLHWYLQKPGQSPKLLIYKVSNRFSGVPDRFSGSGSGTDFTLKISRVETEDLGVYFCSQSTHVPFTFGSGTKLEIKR | 8270

Kindly consider the entry below.
Query block: Quick check: Maximum mean fluorescence intensity of S009-F8-4.5 (antibody, human IgG1, kappa, V domains shown, human-murine chimeric antibody, human IgG1/kappa constant regions) VH: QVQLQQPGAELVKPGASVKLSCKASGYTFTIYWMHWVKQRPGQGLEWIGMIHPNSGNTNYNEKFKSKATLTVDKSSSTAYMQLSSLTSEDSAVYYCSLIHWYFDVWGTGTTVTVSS VL: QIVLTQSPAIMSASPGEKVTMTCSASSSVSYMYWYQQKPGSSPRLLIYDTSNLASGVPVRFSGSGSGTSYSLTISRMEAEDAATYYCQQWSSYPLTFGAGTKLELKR ?
Result block: 14000
